System: Plasmodium falciparum
Assay: GSK_TCMDC: Inhibition of Plasmodium falciparum 3D7 in whole red blood cells, using parasite LDH activity as an index of growth. Test compounds present at 2uM
Type: functional
readout_label: Inhibition (%)
Field: numeric (%). Do not append units.

[Q] Please state recorded Inhibition (tested on Plasmodium falciparum) of CC(C)CNC(=O)c1cncc(-c2ccc(CN(C)C3CCN(C)CC3)cc2)c1.O=C(O)C(F)(F)F
[A] 100

[Q] What Inhibition appears in the records for this compound with Plasmodium falciparum? Cc1cccc2nc(-c3ccc(-c4ccc(CN5CCCC(O)C5)cc4)s3)[nH]c12.O=C(O)C(F)(F)F (stereo not given)
[A] 100

[Q] Give Plasmodium falciparum Inhibition for CC(C)(C)c1ccc(C(=O)Nc2ccc3nc4c(c(N)c3c2)CCCC4)cc1.Cl
[A] 100

[Q] Tell me reported Inhibition for CCOC(=O)CNC(=O)c1cc(=O)c2ccccc2o1 , tested with Plasmodium falciparum.
[A] 99

[Q] Quick check: Inhibition on Plasmodium falciparum, item CC1(C)NC(N)=NC(=N)N1OCc1cc(Cl)cc2c1OCOC2.Cl ?
[A] 95

----------
Record form. Attribute: Inhibition. Fill in for each entry.
Test system: Plasmodium falciparum
Experiment: GSK_TCMDC: Inhibition of Plasmodium falciparum Dd2 in whole red blood cells, using parasite LDH activity as an index of growth. Test compounds present at 2uM
Assay type: functional
Residues, ends and D or L forms follow the SMILES beside them. *: point of attachment. Octanoyl = CCCCCCCC(=O)*
# output: bare number, implied unit %

[Q] GET /values?readout=Inhibition&system=Plasmodium falciparum&item= O=C(Nc1ccncc1)c1cc(C(=O)Nc2ccncc2)cc([N+](=O)[O-])c1
[A] 50

[Q] Notebook: pull reported Inhibition for Plasmodium falciparum, entry CCc1cc2c3c(N)nc(N)nc3ccc2n1C(CC)CC
[A] 12

[Q] Test system Plasmodium falciparum; read-out Inhibition; what value for COc1c(Br)cc(Br)cc1-c1ccc(CN2CC3CCC2CC3)[nH]1.Cl ?
[A] 100

[Q] // lookup Inhibition | system=Plasmodium falciparum | key= CC(=O)Nc1ccc(C(=O)Nc2cccc(-c3ccc(-c4nc5cc(F)ccc5[nH]4)cc3)c2)cn1
[A] 99

[Q] Any idea what Inhibition came out for Cc1cc(NC(=O)[C@H](CC2CCCCC2)Nc2ccc(C#N)c3ccccc23)ccc1F.O=C(O)C(F)(F)F on Plasmodium falciparum?
[A] 99

[Q] Lookup: Inhibition / Plasmodium falciparum / CCc1c(C)nc2nc(Cc3cccc(F)c3)nn2c1N1CCN(c2ccccn2)CC1
[A] 98

[Q] // lookup Inhibition | system=Plasmodium falciparum | key= CS(=O)(=O)O.FC(F)(F)COc1ccc2ccccc2c1CCNCCCCNCCc1c(OCC(F)(F)F)ccc2ccccc12
[A] 53

[Q] Write down the reported Inhibition of Cl.Oc1ccc2[nH]c(-c3cccs3)nc2c1CN1CCC(N2CCCC2)CC1 , test system: Plasmodium falciparum.
[A] 13

[Q] Look up Inhibition with Plasmodium falciparum for this molecule: CCc1cc2c(N)nc(N)nc2nc1-c1ccccc1
[A] 0

[Q] Form entry - test system: Plasmodium falciparum; read-out: Inhibition; molecule: CCCCCC(C)(C)NC[C@@H](O)[C@H](Cc1ccccc1)NC(=O)c1cc(NCC)cc(N2CCCC2=O)c1.O=CO
[A] 97

[Q] // lookup Inhibition | system=Plasmodium falciparum | key= CC(C)Oc1ccc(C=CC(=O)Nc2noc3ccccc23)cc1
[A] 95

[Q] GET /values?readout=Inhibition&system=Plasmodium falciparum&item= CN(C)C(=O)c1ccc(CN(Cc2cccc(OC(C)(C)C)c2)Cc2ccc3c(c2)OCCO3)cc1
[A] 96

[Q] Give the reported Inhibition for Br.CCCCCCCCn1ccc(=N)cc1 (system: Plasmodium falciparum).
[A] 84

[Q] Observed Inhibition on Plasmodium falciparum for CCCCCCCC(=O)N[C@@H](Cc1ccccc1)C(=O)N[C@H](C(=O)O)C(C)C (Octanoyl-Phe-Val-OH) , please.
[A] 0

[Q] Provide value of Inhibition for this record tested with Plasmodium falciparum: COc1ccccc1N1CCN(Cc2cc(C(C)C)c(C)cc2O)CC1
[A] 98

[Q] Entry Cc1nc(C)c(-c2ccc(C(F)(F)F)cc2)c(O)c1Br , system Plasmodium falciparum: what Inhibition was measured?
[A] 96

[Q] Entry CC(C)(C)C1CC(=O)CC2C(=O)N(c3ccc(Br)cc3)C(=O)C21 (stereo unspecified) , system Plasmodium falciparum: what Inhibition was measured?
[A] 7

[Q] Provide value of Inhibition for this record tested with Plasmodium falciparum: O=c1cc(NCCCNC2CCOc3c(Cl)cccc32)[nH]c2ccccc12 (stereo unspecified)
[A] 27

[Q] Provide value of Inhibition for this record tested with Plasmodium falciparum: O=C(NC1CCCCC1)c1ccc(O)c(-c2cccc(C(F)(F)F)c2)c1
[A] 87

[Q] Identify the measured Inhibition of COc1ccc(CN2CCC(NCc3ccc(C(F)(F)F)cc3)CC2)cc1.O=C(O)C(F)(F)F for Plasmodium falciparum.
[A] 0

[Q] Param readout= Inhibition; system= Plasmodium falciparum; entry= CCn1cnc2c(Nc3cccc([N+](=O)[O-])c3)nc(N3CCC(N4CCCCC4)CC3)nc21 ; returns value.
[A] 35
